Data origin, for the record: patent US9630977B2

Each record here notes measured MIC90.
system: K. pneumoniae β9; assay: In vitro antibacterial activity test (broth microdilution); assay type: cell-based; settings: Klebsiella pneumoniae
MEASURED_PROPERTY: MIC90 (µg/mL)

- COMPOUND: "CC(C)(O/N=C(\\C(=O)N[C@@H]1C(=O)N2C(C(=O)[O-])=C(C[n+]3cnc(NCCCCN)c(NCCCCN)c3)CSC12)c1csc(N)n1)C(=O)O (some centres unmarked)"
  QUANTITY_UNIT: "µg/mL"
  RESULT: 2
- COMPOUND: "CC(C)(O/N=C(\\C(=O)N[C@@H]1C(=O)N2C(C(=O)[O-])=C(/C=C/C[n+]3cnc(N)c(NCCN)c3N)CSC12)c1csc(N)n1)C(=O)O (some centres unmarked)"
  QUANTITY_UNIT: "µg/mL"
  RESULT: 1
- COMPOUND: "CC(C)(O/N=C(\\C(=O)N[C@@H]1C(=O)N2C(C(=O)[O-])=C(/C=C/C[n+]3cnc(N)c(NCCN)c3)CSC12)c1nsc(N)n1)C(=O)O (some centres unmarked)"
  QUANTITY_UNIT: "µg/mL"
  RESULT: 2
- COMPOUND: "CC(C)(O/N=C(\\C(=O)N[C@@H]1C(=O)N2C(C(=O)[O-])=C(/C=C/C[n+]3cnc(N)c(NC(=O)CCCN)c3)CSC12)c1csc(N)n1)C(=O)O (some centres unmarked)"
  QUANTITY_UNIT: "µg/mL"
  RESULT: 1
- COMPOUND: "CC(C)(O/N=C(\\C(=O)N[C@@H]1C(=O)N2C(C(=O)[O-])=C(/C=C/C[n+]3cnc(N)c(NCCCCN)c3)CSC12)c1nc(N)sc1Cl)C(=O)O (some centres unmarked)"
  QUANTITY_UNIT: "µg/mL"
  RESULT: 8
- COMPOUND: "CC(C)(O/N=C(\\C(=O)N[C@@H]1C(=O)N2C(C(=O)[O-])=C(/C=C/C[n+]3cnc(N)c(NC(=O)CCN)c3)CSC12)c1csc(N)n1)C(=O)O (some centres unmarked)"
  QUANTITY_UNIT: "µg/mL"
  RESULT: 1
- COMPOUND: "CC(C)(O/N=C(\\C(=O)N[C@@H]1C(=O)N2C(C(=O)[O-])=C(/C=C/C[n+]3cnc(N)c(NC(=O)CCCN)c3)CSC12)c1nc(N)sc1Cl)C(=O)O (some centres unmarked)"
  QUANTITY_UNIT: "µg/mL"
  RESULT: 2
- COMPOUND: "CC(C)(O/N=C(\\C(=O)N[C@@H]1C(=O)N2C(C(=O)[O-])=C(/C=C/C[n+]3cnc(N)c(NC(=O)CCCN)c3)CSC12)c1nsc(N)n1)C(=O)O (some centres unmarked)"
  QUANTITY_UNIT: "µg/mL"
  RESULT: 16
- COMPOUND: "CC(C)(O/N=C(\\C(=O)N[C@@H]1C(=O)N2C(C(=O)[O-])=C(/C=C/C[n+]3cnc(N)c(NC(=O)CCN)c3)CSC12)c1nsc(N)n1)C(=O)O (some centres unmarked)"
  QUANTITY_UNIT: "µg/mL"
  RESULT: 16
- COMPOUND: "C[C@H](O/N=C(\\C(=O)N[C@@H]1C(=O)N2C(C(=O)[O-])=C(/C=C/C[n+]3cnc(N)c(NCCN)c3)CSC12)c1csc(N)n1)C(=O)O (some centres unmarked)"
  QUANTITY_UNIT: "µg/mL"
  RESULT: 4
- COMPOUND: "CC(C)(O/N=C(\\C(=O)N[C@@H]1C(=O)N2C(C(=O)[O-])=C(/C=C/C[n+]3cnc(N)c(NCCCN)c3)CSC12)c1nc(N)sc1Cl)C(=O)O (some centres unmarked)"
  QUANTITY_UNIT: "µg/mL"
  RESULT: 1
